Listed here are sequences together with their documented self-aminoacylation.
test system: biotinyl-Trp-oxazolone; assay: self-aminoacylation, catalytic enhancement (BWO) (fold over background); higher = more active; k-Seq, kA / k0A0; sequences stand for … in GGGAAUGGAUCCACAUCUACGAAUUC…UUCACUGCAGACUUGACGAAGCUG
Fewer inactive variants are shown than the library holds.
property: self-aminoacylation

residues="AUUCACUUAGGGCAUCGGGUG [Fam2.2 aminoacylation ribozyme variant]" target_desc=biotinyl-Trp-oxazolone number=3.48
residues="GUUACCCUGGUCAUCUAGUGA [Fam2.1 aminoacylation ribozyme variant]" target_desc=biotinyl-Trp-oxazolone number=13.4
residues="AUUCACCUAGGGUAUCGGGUG [Fam2.2 aminoacylation ribozyme variant]" target_desc=biotinyl-Trp-oxazolone number=6.31
residues="AUUCACUUAGGUCAUCGGUUG [Fam2.2 aminoacylation ribozyme variant]" target_desc=biotinyl-Trp-oxazolone number=0.519
residues="AUCCACCUAGGUCAGCGGGUG [Fam2.2 aminoacylation ribozyme variant]" target_desc=biotinyl-Trp-oxazolone number=4.43
residues="AUUCACCUGGGUCAUCGGGUA [Fam2.2 aminoacylation ribozyme variant]" target_desc=biotinyl-Trp-oxazolone number=14.8
residues="AUUAUCCUGGCCAUCGAGUGA [Fam2.1 aminoacylation ribozyme variant]" target_desc=biotinyl-Trp-oxazolone number=2.77
residues="AUUCCCCUGGUCAACGAGUGA [Fam2.1 aminoacylation ribozyme variant]" target_desc=biotinyl-Trp-oxazolone number=8.98
residues="CCACACCUCAACCAAUCGGUC [Fam1B.1 aminoacylation ribozyme variant]" target_desc=biotinyl-Trp-oxazolone number=3.13
